Give measured pIC50 for each item. Keep answers brief.
study_system: human MRGPR X4 (Homo sapiens, UniProt Q96LA9)
Construct: expressed in transfected cells
Sequence (Q96LA9 whole entry): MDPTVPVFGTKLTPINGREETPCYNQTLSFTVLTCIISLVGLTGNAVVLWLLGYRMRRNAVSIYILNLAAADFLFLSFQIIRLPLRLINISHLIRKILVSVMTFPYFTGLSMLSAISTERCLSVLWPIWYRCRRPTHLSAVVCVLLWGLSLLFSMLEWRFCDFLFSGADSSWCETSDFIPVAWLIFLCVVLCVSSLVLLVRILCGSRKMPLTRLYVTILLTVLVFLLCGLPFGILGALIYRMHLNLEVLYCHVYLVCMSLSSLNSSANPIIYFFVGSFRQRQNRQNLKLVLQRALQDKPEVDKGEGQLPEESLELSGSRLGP
measurement_description: MRGPR X4 antagonist activity, IP-One Gq HTRF assay in stably transfected HEK cells
Assay type: cell-based
pIC50: −log10 of the molar value.

Some solved entries appear below for comparison.
[
  {
    "compound": "Cc1ccccc1CCNC(=O)c1nn(Cc2ccc(Cl)cc2)c2ccccc12 [Compound 363]",
    "pIC50": "< 5.60"
  },
  {
    "compound": "COc1cc(CCNC(=O)c2nn(Cc3ccc(Cl)cc3)c3ccccc23)ccc1O [Compound 366]",
    "pIC50": "> 7.00"
  },
  {
    "compound": "O=C(NCCc1nnc2ccccn12)c1nn(Cc2ccc3ccccc3c2)c2ccc(F)cc12 [Compound 532]",
    "pIC50": "> 7.00"
  }
]

// moving on: another record for pIC50
Could you share what pIC50 was measured for O=C(NCc1ccc2ccccc2n1)c1nn(Cc2ccc(Cl)cc2)c2ccccc12 [Compound 423] , tested on human MRGPR X4 (Homo sapiens, UniProt Q96LA9)?
< 5.60

* * *

study_system: human MRGPR X4 (Homo sapiens)
Construct: expressed in transfected cells
measurement_description: MRGPR X4 antagonist activity, IP-One Gq HTRF assay in stably transfected HEK cells
Assay type: cell-based
condition_summary: versus 20 μM deoxycholic acid agonist; HEK cells expressing human MRGPR X4; read-out: MRGPRX4 Antagonist Activity
experimental_readout: IC50

Some solved entries appear below for comparison.
[
  {
    "chemical_structure": "O=C(NCCc1nnc2ccccn12)c1nn(Cc2ccc(-c3ccccc3)cc2)c2ccccc12",
    "IC50": "> 2500 nM"
  },
  {
    "chemical_structure": "Cc1ccccc1S(=O)(=O)NC(=O)c1nn(Cc2ccc(C(F)(F)F)cc2Cl)c2ccccc12",
    "IC50": "1000 to 2500 nM"
  },
  {
    "chemical_structure": "Cc1cc(S(=O)(=O)NC(=O)c2nn(Cc3ccc(OC(F)F)cc3)c3ccccc23)ccc1Cl",
    "IC50": "> 2500 nM"
  }
]

I need IC50 for every entry listed below, if you could help.
1. O=C(NS(=O)(=O)c1ccc(Cl)cc1Cl)c1nn(Cc2ccc(Cl)cc2)c2ccccc12
2. O=C(NS(=O)(=O)c1ccc(C(F)(F)F)cc1)c1nn(Cc2ccc(OC(F)F)cc2)c2ccccc12
3. O=C(NCCc1nnc2ccccn12)c1nn(CCc2ccc(Cl)cc2)c2ccccc12
4. N#Cc1ccc(S(=O)(=O)NC(=O)c2nn(Cc3cccc(F)c3)c3ccccc23)cc1Cl
5. Cc1ccc(S(=O)(=O)NC(=O)c2nn(Cc3ccc(OC(F)F)cc3)c3ccccc23)cc1C
6. Cc1cccc(S(=O)(=O)NC(=O)c2nn(Cc3ccc(OC(F)(F)F)cc3)c3ccccc23)c1
7. CNC(=O)CS(=O)(=O)c1cn(Cc2ccc(Cl)cc2)c2ccccc12

> 2500 nM
1000 to 2500 nM
> 2500 nM
> 2500 nM
1000 to 2500 nM
1000 to 2500 nM
1000 to 2500 nM

* * *

study_system: human MRGPR X4 (Homo sapiens, UniProt Q96LA9)
Construct: expressed in transfected cells
measurement_description: MRGPR X4 antagonist activity, IP-One Gq HTRF assay in stably transfected HEK cells
Type: cell-based
experimental_readout: IC50

[
  {
    "chemical_structure": "O=C(NCCNC(=O)c1nn(Cc2ccc(Cl)cc2)c2ccccc12)c1ccccc1",
    "result": "100 to 500 nM"
  },
  {
    "chemical_structure": "O=C(NCCc1nnc2ccccn12)c1nn(Cc2nc3ccccc3[nH]c2=O)c2ccccc12",
    "result": "> 2500 nM"
  },
  {
    "chemical_structure": "COc1cccc(CCNC(=O)c2cn(Cc3ccc(Cl)cc3)c3ccccc23)c1",
    "result": "100 to 500 nM"
  },
  {
    "chemical_structure": "O=C(NCCc1nnc2ccccn12)c1nn(Cc2ccc3ccccc3c2)c2ccccc12",
    "result": "< 100 nM"
  },
  {
    "chemical_structure": "O=C(NCCc1ccccc1F)c1cn(Cc2ccc(Cl)cc2)c2ccccc12",
    "result": "100 to 500 nM"
  }
]

I need IC50 for every entry listed below, if you could help.
1. O=C(NCCn1nnc2ccccc21)c1nn(Cc2ccc(Cl)cc2)c2ccc(F)cc12
2. COc1cc(Cn2nc(C(=O)NCCc3cccnc3)c3ccccc32)ccc1Cl

1: < 100 nM; 2: 100 to 500 nM
